# Tested on: SF-295
# assay_remarks: NCI tumour cell line growth inhibition, 48 h
The source made the active and inactive calls. Cut-off read from the data, not from the text of the source: active = GI50 up to about 1.1 µM and inactive = higher.
observation_type: GI50

Ask: Return reported GI50 for target or system SF-295, item C=C1C2C[C@@H]3O[C@H]4C[C@H]5O[C@@]6(C[C@@H]7O[C@]8(C[C@H](C)[C@@H]9O[C@@H]%10CC(C=O)O[C@@H]%10C[C@@H]9O8)C[C@H](C)[C@@H]7O6)C[C@H]5O[C@H]4[C@H](C)[C@H]3OC(=O)C[C@H]3CC[C@@H]4OC5[C@H]6O[C@]7(CC[C@H]8CC(=C)[C@H](CC[C@@H](C[C@H]1C)O2)O8)CC6O[C@@H]5[C@@H](O7)[C@H]4O3 (stereo not given in full) .
Result: < 0.0001 µM (active)

Ask: Report GI50 from SF-295 testing of COC(=O)C(Cc1nc2ccccc2nc1O)C(=O)C(=O)Nc1cc(C(F)(F)F)ccc1Cl (stereo not given)
Result: 28.3 µM (inactive)

Ask: Param request: GI50 | system SF-295 | item Cc1cc(C(=O)N2CCN(Cc3ccccc3)CC2)c(C)o1
Result: > 100 µM (inactive)

Ask: Quote SF-295 GI50 for entry CC(C)CCC1CC2C(=O)N(c3ccccc3)C(=O)C2c2[nH]c3ccccc3c21 (stereo not given) .
Result: 0.509 µM (active)

Ask: Write down the reported GI50 (system: SF-295) of Cn1ncc2c(NCCc3ccccc3)nc(Cl)nc21
Result: 16.4 µM (inactive)

Ask: Fill in GI50 for O=C1C2C(C(=O)N1OS(=O)(=O)c1ccccc1)N(Cc1ccccc1)C(=O)N2Cc1ccccc1 (stereo not given) tested with SF-295.
Result: > 100 µM (inactive)

Ask: Report GI50 under test system SF-295 for COc1ccc(/C=[N+](\[O-])[C@H](COCc2ccccc2)c2ccccc2)cc1 .
Result: 66.8 µM (inactive)

Ask: Tell me its GI50 on SF-295: OC1CCC(C2C3CCCCC3C3CCCCC3C2C2CCC(O)CC2)CC1 (stereo not given)
Result: 4.28 µM (inactive)

Ask: Provide SF-295 GI50 reading for COc1cccc2c1C(CO)N1C(C#N)C3CC(C(=O)O)C(C1C2)N3C (stereo not given) .
Result: 4.7 µM (inactive)

Ask: # lookup: SF-295 GI50, key = Brc1ccc(C2CC(c3cccc4ccccc34)=Nc3ccccc3S2)cc1 (stereo not given)
Result: 37.3 µM (inactive)

Ask: Under SF-295, report GI50 for CCCCn1c2c(n(CCCC)c1=S)-c1c(n(CCCC)c(=S)n1CCCC)SSSS2
Result: 13.3 µM (inactive)

Ask: Tell me its GI50 on SF-295: N#CC1C(=O)Nc2sc(C(=O)c3ccc(Br)cc3)c(N)c2C12CCCCC2 (stereo not given)
Result: 30.5 µM (inactive)

Ask: For SF-295, give GI50 of the listed compound: COC(=O)C(=O)C(C(=O)C(=O)Nc1ccc(C)cc1C)c1nc2ccc(Cl)cc2nc1O (stereo not given)
Result: > 100 µM (inactive)

Ask: System SF-295. Read-out GI50. Item CN1[C@@H]2CCCC[C@H]2N(C)P1(=O)C(O)/C=C/c1ccccc1 (stereo not given in full) . Report value.
Result: > 100 µM (inactive)

Ask: Find GI50 for O=C(c1ccccc1)N1CCC(Nc2nccs2)O1 (stereo not given) on SF-295 and write it down.
Result: > 10 µM (inactive)

Ask: Provide the reported GI50 (system: SF-295) for C/C=C\C(CC(=O)NCCC1CN(C(=O)c2ccccc2)c2ccccc21)CC(=O)OC (stereo not given)
Result: > 100 µM (inactive)

Ask: Provide the reported GI50 (system: SF-295) for c1ccc(CN2COc3c(ccc4c5c(ccc34)CN(Cc3ccccc3)CO5)C2)cc1
Result: > 100 µM (inactive)

Ask: Look up and report measured GI50 (SF-295) for the following compound: C=CCN1CCN([C@H](c2ccc(C(=O)N(CC)CC)cc2)c2cccc(OC)c2)CC1
Result: > 25 µM (inactive)

Ask: Please look at CC1CN1c1c(C(=O)/C=C/c2ccccc2)c(-c2ccccc2)nn(C)c1=O (stereo not given) and tell me its recorded GI50 on SF-295.
Result: 22.6 µM (inactive)

Ask: Give reported GI50 for Cc1cc(O)c2c(c1)C(O)(c1ccc3c(c1O)C(=O)c1c(O)cc(C)cc1C3(O)C1OC(CO)C(O)C(O)C1O)c1cccc(O)c1C2=O (stereo not given) (SF-295)
Result: 11.6 µM (inactive)

Ask: Look up and report GI50, with SF-295 as system, for COc1ccc(CNc2nc(NC3CCCCC3)nc(NC3CCCCC3)n2)cc1
Result: 9.66 µM (inactive)

Ask: Give reported GI50 for c1ccc(CCCN2C3CCC2CN(CCOC(c2ccccc2)c2ccccc2)C3)cc1 (SF-295)
Result: 12.2 µM (inactive)

Ask: Fetch value of GI50 on SF-295 for Cn1nc(Cc2ccc(Cl)cc2)n(N)c1=O .
Result: > 100 µM (inactive)

Ask: Provide GI50, tested on SF-295, for COc1cccc2c(Nc3ccc(S(=O)(=O)NC(C)=O)cc3)c3ccc([N+](=O)[O-])cc3nc12 .
Result: > 88.3 µM (inactive)

Ask: Look up and report measured GI50 (SF-295) for the following compound: Cc1cc(Cl)ccc1N1C(=O)C(=O)C(c2nc3ccccc3o2)C(=O)C1=O
Result: > 100 µM (inactive)

Ask: Consider the compound COc1ccc2[nH]c3c(C)c4ccnc(NCCCN(C)CCCN)c4c(C)c3c2c1 tested on SF-295; state its GI50.
Result: 0.214 µM (active)

Ask: Given COC(=O)[C@H](Cc1c[nH]c2ccccc12)NC(=O)c1ccccc1I , report its GI50 on SF-295.
Result: 42.4 µM (inactive)

Ask: Recall the reported GI50 of CC(=O)Oc1ccccc1C(=O)O [ASPIRIN] on SF-295 and write it down.
Result: > 100 µM (inactive)

Ask: Find the measured GI50 of COc1ccc2c(c1)CN1C(=N2)CSC1c1ccccc1Cl (stereo not given) with SF-295 as test system.
Result: 24.7 µM (inactive)

Ask: Answer with GI50 of CC(=O)O[C@H]1[C@@H](OC2CCCC2(c2ccccc2)c2ccccc2)O[N+]([O-])=C[C@@]12COCc1cc3c(cc12)OCO3 (stereo not given in full) measured for SF-295.
Result: 5.25 µM (inactive)

Ask: Report GI50 under test system SF-295 for Cc1ccc(NC(=O)c2cccc([N+](=O)[O-])c2O)c([N+](=O)[O-])c1 .
Result: 15.1 µM (inactive)

Ask: // fetch GI50; item: CC1=NN(c2nc(N)nc(CSc3nc4n(c(=S)n3)CCN4)n2)C(C)(C)C1 ; system: SF-295
Result: 22.9 µM (inactive)

Ask: Give GI50 only, for C[N+](C)(C)CC(=O)N/N=C(/CC(=O)CC(C1=C(O)c2ccccc2OC1)c1ccccc1)C(=O)Nc1cccc(Cl)c1 (stereo not given) , using SF-295 data.
Result: > 100 µM (inactive)

Ask: Provide GI50, tested on SF-295, for COc1ccc(/N=N/c2c(-c3c(OC)cc4occc4c3OC)[nH]c(=O)c(C#N)c2C)cc1 .
Result: > 100 µM (inactive)

Ask: State GI50 (SF-295) of O=C1C2Nc3ccccc3SC2C(=O)N1c1ccc(Br)cc1 (stereo not given) .
Result: 26.6 µM (inactive)

Ask: Name the recorded GI50 of N#CCc1nc2c(s1)C(=O)c1ccccc1C2=O , assay system SF-295.
Result: 19.4 µM (inactive)

Ask: # return GI50 of COC1(c2cccs2)c2ccccc2C(OC)(c2cccs2)c2ccccc21 (stereo not given) (system: SF-295)
Result: 28.3 µM (inactive)

Ask: Tell me its GI50 on SF-295: CC1C(c2ccccc2)OP(=O)(OC(C#N)c2ccccc2)N1C (stereo not given)
Result: > 100 µM (inactive)

Ask: Write down measured GI50 (SF-295) for this compound. O=C(/N=C1/NCC(CN2CCN(c3ccccc3)CC2)O1)Nc1ccccc1 (stereo not given)
Result: > 100 µM (inactive)

Ask: # return GI50 of Sc1nn2c(COc3cc(Cl)c(OCc4nnc5sc(S)nn45)cc3Cl)nnc2s1 (system: SF-295)
Result: > 100 µM (inactive)

====

# System: HT-29
# assay_remarks: NCI tumour cell line growth inhibition, 48 h
Activity calls are given as the source filed them. No stated cut-off is given here; in the data, active = GI50 up to about 1.1 µM and inactive = higher.
Answer with one of the outcomes given here: active, inactive

Ask: Record request — test call for Fc1ccc(C(OCCN2CCC3CCC(C2)N3C/C=C/c2cccnc2)c2ccc(F)cc2)cc1 (centres undefined)
Result: inactive

Ask: Short answer needed: outcome of this test for C=C(CCC/C(C)=C/C=C/[C@]1(C)CCCc2ccoc21)CC(=O)O ?
Result: inactive

Ask: What call does the record list for COc1cc([C@@H]2c3cc4c(cc3[C@@H](NC(=O)c3cccc(F)c3)C3COC(=O)[C@@H]32)OCO4)cc(OC)c1O (some centres undefined) ?
Result: inactive

Ask: For CC1=CP(=O)(c2ccccc2)C=C(C)C1=C(Cl)Cl (centres undefined) , which call appears in the assay record?
Result: inactive

Ask: Test call, this compound: O=C1CSC(c2ccccc2)N1c1ccc(-c2ccc(-n3c(-c4ccccc4)nc4ccccc4c3=O)cc2)cc1 (centres undefined)
Result: inactive

Ask: Entry Cc1ccc2c(C3Cc4ccccc4N3C(=O)/C=C\C(=O)O)c(C)[nH]c2c1 (centres undefined) : call = ?
Result: inactive

Ask: Answer briefly: the call reported for c1ccc([P+](c2ccccc2)(c2ccccc2)C2c3ccccc3-c3ccccc32)cc1 in this assay.
Result: active

Ask: What did this assay record as the result for c1c[nH]c(Cc2nc(Cc3c[nH]cn3)c[nH]2)n1 ?
Result: inactive

Ask: # lookup: test call for COc1cccc2c(Nc3ccc(S(=O)(=O)NC(C)=O)cc3)c3ccc([N+](=O)[O-])cc3nc12
Result: inactive
